Values compiled from PubChem BioAssay (NCI).

# Test system: U251 CNS
# experiment: NCI tumour cell line growth inhibition, 48 h
measuredMetric: TGI

Here is how some compounds turned out for TGI.
>  <compound>
Nc1nc(N)c2cc(S(=O)(=O)c3ccccc3)ccc2n1

>  <assayResult>
> 100 µM

$$$$
>  <compound>
O=C(Cc1ccc(-c2ccc(OCCN3CCOCC3)cc2)cn1)NCc1ccccc1

>  <assayResult>
> 100 µM

$$$$
>  <compound>
Oc1cc(F)cc2cccnc12

>  <assayResult>
> 100 µM

$$$$
>  <compound>
COc1ccc(OC)c2c1ccc1c(C)c3ccccc3c(C)c12

>  <assayResult>
> 100 µM

$$$$

So what does the record say about TGI for O=S(C(c1ccccc1)=P(c1ccccc1)(c1ccccc1)c1ccccc1)c1ccc(Cl)cc1 (stereo unspecified) ?
> 100 µM

Please answer likewise for Cc1c(-c2cc(-c3ccccc3)n[nH]c2=O)c2ccccc2n1C
> 100 µM

Please give the result for C=CC(=O)N1CCC(CNc2ncnc(N)c2-c2ccc(Oc3ccccc3)cc2)CC1 too.
> 100 µM

Try COc1cc([N+](=O)[O-])cc2c1NC(=O)C2(C)SC (stereo unspecified) next.
> 100 µM

Next up: COC(=O)[C@H]1C2CC[C@@H]3C45C[C@@H](c6ccoc6)O[C@@H]4O[C@@H](O2)C31CCC5C (stereo partly specified)
> 100 µM

Another: NC(N)=N/N=C/c1c(-c2cccs2)nc2n1CCS2
30.1 µM

Then what about the compound COc1ccc(C#CC2=C(Br)C(=O)OC2)cc1 ?
6.48 µM

Can you handle COc1ccc(C2S/C(=C\c3ccc([N+](=O)[O-])cc3)C(=O)N2NC(=O)Cc2ccccc2)cc1 (stereo unspecified) next?
> 100 µM

Input O=S(=O)(N1CCCCN(S(=O)(=O)C(F)(F)F)CCCN(S(=O)(=O)C(F)(F)F)CCCCN(S(=O)(=O)C(F)(F)F)CCCN(S(=O)(=O)C(F)(F)F)CCCCN(S(=O)(=O)C(F)(F)F)CCCN(S(=O)(=O)C(F)(F)F)CCCCN(S(=O)(=O)C(F)(F)F)CCC1)C(F)(F)F
> 100 µM
